Reference for the values: ChEMBL document CHEMBL3804781

# Test system: Trypanosoma brucei
# Protocol Notes: Activity at recombinant His-tagged Trypanosoma brucei NTR assessed as oxidation of NADH/min/mg of protein after 5 mins by spectrophotometric analysis
The source made the active and inactive calls. No cut-off for these calls is given here.
Write down one outcome, taken from active, inactive

Inquiry: # outcome recorded in this test, key = O=C(Nc1ncc([N+](=O)[O-])s1)c1ccc(-c2ccccc2)cc1
Reply text: inactive

Inquiry: I'd appreciate the recorded outcome for O=C(COc1ccc(-c2ccccc2)cc1)Nc1ncc([N+](=O)[O-])s1 from this test.
Reply text: inactive

Inquiry: Test call for this molecule, please: O=C(CN1CCN(C(c2ccccc2)c2ccc(Cl)cc2)CC1)Nc1ncc([N+](=O)[O-])s1 (configuration not stated)
Reply text: inactive

Inquiry: Per the assay record, what outcome was assigned to O=C(CN1CCN(c2ccccn2)CC1)Nc1ncc([N+](=O)[O-])s1 ?
Reply text: inactive

Inquiry: Per the assay record, what outcome was assigned to O=C(CN1CCN(c2ccc(Cl)c(Cl)c2)CC1)Nc1ncc([N+](=O)[O-])s1 ?
Reply text: inactive

Inquiry: Any idea what this test logged for O=C(Cn1ccnc1[N+](=O)[O-])NCc1ccccc1 ?
Reply text: active

Query molecule follows.
Inquiry: Write down the call the test reported for this molecule. Item: O=C(CN1CCN(c2ccc(C(F)(F)F)cc2)CC1)Nc1ncc([N+](=O)[O-])s1
Reply text: active
